# Target Desc: NRAS WT (Homo sapiens (Human), UniProt P01111+P62937)
# Sequence (P01111 whole entry): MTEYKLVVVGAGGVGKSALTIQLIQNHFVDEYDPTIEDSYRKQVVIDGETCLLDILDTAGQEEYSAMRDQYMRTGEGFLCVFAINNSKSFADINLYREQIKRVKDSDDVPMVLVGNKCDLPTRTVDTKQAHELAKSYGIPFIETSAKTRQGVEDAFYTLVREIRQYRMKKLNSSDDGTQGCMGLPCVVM
# Sequence (P62937 whole entry): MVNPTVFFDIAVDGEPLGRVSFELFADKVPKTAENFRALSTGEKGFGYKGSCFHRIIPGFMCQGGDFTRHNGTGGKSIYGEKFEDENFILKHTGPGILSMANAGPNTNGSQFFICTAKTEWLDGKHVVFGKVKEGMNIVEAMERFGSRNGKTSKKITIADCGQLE
# Experiment Description: Ras-Raf disruption/FRET/MOA assay, NRAS WT
# Type: biochemical

[
  {
    "Smiles Structure": "CCn1c(-c2cccnc2[C@H](C)OC)c2c3cc(ccc31)-c1cc(O)cc(c1)C[C@H](NC(=O)[C@H](C(C)C)N(C)C(=O)[C@]13C[C@H]1CCN3C(=O)[C@H]1CN1)C(=O)N1CCC[C@H](N1)C(=O)OCC(C)(C)C2",
    "IC50": "100 to 1000 nM"
  },
  {
    "Smiles Structure": "CCn1c(-c2cccnc2[C@H](C)OC)c2c3cc(ccc31)-c1cc(O)cc(c1)C[C@H](NC(=O)[C@H](C(C)C)N(C)C(=O)[C@@]1(C)CCCN1C(=O)[C@H]1CN1)C(=O)N1CCC[C@H](N1)C(=O)OCC(C)(C)C2",
    "IC50": "10 to 100 nM"
  },
  {
    "Smiles Structure": "CCn1c(-c2cccnc2[C@H](C)OC)c2c3cc(ccc31)-c1cc(O)cc(c1)C[C@H](NC(=O)[C@@H](C(C)C)N(C)C(=O)[C@@]1(C)CCCN1C(=O)[C@@H]1CN1)C(=O)N1CCC[C@H](N1)C(=O)OCC(C)(C)C2",
    "IC50": "100 to 1000 nM"
  },
  {
    "Smiles Structure": "CCn1c(-c2cccnc2[C@H](C)OC)c2c3cc(ccc31)-c1cc(O)cc(c1)C[C@H](NC(=O)[C@H](C(C)C)N(C)C(=O)[C@]1(C)CCCN1C(=O)[C@H]1CN1)C(=O)N1CCC[C@H](N1)C(=O)OCC(C)(C)C2",
    "IC50": "100 to 1000 nM"
  },
  {
    "Smiles Structure": "CCn1c(-c2cccnc2[C@H](C)OC)c2c3cc(ccc31)-c1cc(O)cc(c1)C[C@H](NC(=O)[C@H](C(C)C)N(C)C(=O)[C@@]1(C)CCCN1C(=O)[C@@H]1CN1)C(=O)N1CCC[C@H](N1)C(=O)OCC(C)(C)C2",
    "IC50": "10 to 100 nM"
  },
  {
    "Smiles Structure": "CCn1c(-c2cccnc2[C@H](C)OC)c2c3cc(ccc31)-c1cc(O)cc(c1)C[C@H](NC(=O)[C@@H](C(C)C)N(C)C(=O)[C@@]1(C)CCCN1C(=O)[C@H]1CN1)C(=O)N1CCC[C@H](N1)C(=O)OCC(C)(C)C2",
    "IC50": "1000 to 10000 nM"
  }
]

Origin of values: patent US20250195521A1
